- TARGET OR TEST SYSTEM: Peroxisome proliferator-activated receptor gamma (Homo sapiens) (UniProt P37231)
- Sequence (P37231 whole entry, the tested form may be a part): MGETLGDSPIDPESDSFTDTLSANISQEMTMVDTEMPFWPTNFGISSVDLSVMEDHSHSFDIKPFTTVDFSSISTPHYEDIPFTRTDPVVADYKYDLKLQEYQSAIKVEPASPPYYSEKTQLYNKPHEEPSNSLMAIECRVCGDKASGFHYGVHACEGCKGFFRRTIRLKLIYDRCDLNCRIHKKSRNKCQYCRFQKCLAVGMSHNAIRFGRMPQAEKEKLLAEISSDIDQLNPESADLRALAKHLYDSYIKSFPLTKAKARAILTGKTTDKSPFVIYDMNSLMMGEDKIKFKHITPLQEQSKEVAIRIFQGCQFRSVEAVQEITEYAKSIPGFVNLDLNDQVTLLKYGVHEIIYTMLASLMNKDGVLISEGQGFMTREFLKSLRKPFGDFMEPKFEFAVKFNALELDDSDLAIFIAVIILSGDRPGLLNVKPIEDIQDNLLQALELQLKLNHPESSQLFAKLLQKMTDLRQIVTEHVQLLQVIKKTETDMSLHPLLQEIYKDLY
- TEST NAME: Agonist activity at human GAL4 fused PPARgamma-Hinge-LBD expressed in HEK293T cells after 18 hrs by luciferase reporter gene assay relative to rosiglitazone
- Type: cell-based
- SETUP CONDITIONS: HEK-293T
METRIC NAME: Activity (%)

O=S(=O)(Nc1cc(Cl)c(Oc2cnc3ccccc3c2)c(Cl)c1)c1ccc(Br)c(C(F)(F)F)c1; 18

[P] COc1cccc(C(=O)Nc2cc(Cl)c(Oc3cnc4ccccc4c3)c(Cl)c2)c1
[Q] O=S(=O)(Nc1cc(Cl)c(Oc2cnc3ccccc3c2)c(Cl)c1)c1cc(F)c(Br)cc1F
[R] O=S(=O)(Nc1cc(Cl)c(Oc2cnc3ccccc3c2)c(Cl)c1)c1ccccc1Cl
[S] Cc1cc(S(=O)(=O)Nc2cc(Cl)c(Oc3cnc4ccccc4c3)c(Cl)c2)ccc1Br
Put these in order: smallest Activity first, largest last. State the ranking by listing the labels in the requested order. P, Q, R, S

====

- TARGET OR TEST SYSTEM: Peroxisome proliferator-activated receptor gamma (Homo sapiens, UniProt P37231)
- Sequence (P37231 whole entry, the tested form may be a part): as above
- TEST NAME: Agonist activity at human GAL4 fused PPARgamma-Hinge-LBD expressed in HEK293T cells after 18 hrs by luciferase reporter gene assay
METRIC NAME: EC50 (µM)

O=S(=O)(Nc1cc(Cl)c(Oc2cnc3ccccc3c2)c(Cl)c1)c1ccc2ccccc2c1; 4.29

[P] O=S(=O)(Nc1cc(Cl)c(Oc2cnc3ccccc3c2)c(Cl)c1)c1ccc(Br)cc1Cl
[Q] Cc1cc(C)c(S(=O)(=O)Nc2cc(Cl)c(Oc3cnc4ccccc4c3)c(Cl)c2)c(C)c1
Which one would you say has the larger EC50 value: P , or Q ? Write the label of whichever entry you select. Q
(Q: 3.31 µM, P: 0.134 µM)
